Test system: OVCAR-3
test-summary: NCI tumour cell line growth inhibition, 48 h
The source made the active and inactive calls. No stated cut-off is given here; in the data, active = GI50 up to about 1.1 µM and inactive = higher.
Labels: active, inactive

• COC(=O)[C@]12CCC(C)[C@H](C)[C@H]1C1=CCC3[C@@]4(C)CC[C@H](OC(C)=O)C(C)(C)C4CC[C@@]3(C)C1(C)C(O)C2 (some centres undefined) = inactive
• Nc1c(Br)cc(-c2cc(Br)c(N)c(Br)c2)cc1Br = inactive
• COc1cc(C2C=C(c3ccccc3)Oc3cc4c(cc32)OCO4)cc(OC)c1OC (centres undefined) = active
• Cc1ccc(-n2nnc(C(N)=O)c2O)cc1 = inactive
• C[N+](C)(C)CC(=O)N/N=C(\C(=O)Nc1ccc(Cl)cc1)C1C(=O)N(c2ccccc2)N=C1N (centres undefined) = inactive
• O=C(Nc1cc2cc([N+](=O)[O-])ccc2oc1=O)c1cccs1 = inactive
• CCC1([N+](=O)[O-])CN(N=O)C1 = inactive
• COc1cc2c(cc1OCCCCN1CCN(CCCCOc3cc4c(cc3OC)C(=O)N3CCC[C@H]3C=N4)CC1)N=C[C@@H]1CCCN1C2=O = active
• C/C(=C\COP(=O)(O)OP(=O)(O)O)CC/C=C(\C)CNc1c(F)c(F)c(F)c(F)c1F = inactive

---

Tested on: 786-0
test-summary: NCI tumour cell line growth inhibition, 48 h
Calls of active or inactive are those of the source. No stated cut-off is given here; in the data, active = GI50 up to about 1.1 µM and inactive = higher.
Outcomes: active, inactive

• O=C1CC(NCc2ccccc2)c2c(Cl)sc(Cl)c21 (stereo not drawn) = inactive
• O=C(CC(O)(C(F)(F)F)C(F)(F)Cl)CC(O)(C(F)(F)F)C(F)(F)Cl (stereo not drawn) = inactive
• C=C1C2CC(OC(C)=O)C3(C)C(c4ccoc4)OC(=O)[C@@H](O)[C@]13OC1C[C@H](OC(C)=O)C(C)(C)[C@H](CC(=O)OC)[C@]12C (stereo partly drawn) = inactive
• COc1cccc2nc3c(C(=O)NCCN(C)C)cccc3nc12 = inactive
• COc1cc(Nc2nc3cc(C(F)(F)F)ccc3nc2C)cc(OC)c1OC = inactive
• COc1cc(CCCC(O)COc2cccc3c2C2(O)CCCCCC32)cc(OC)c1 (stereo not drawn) = inactive
• O=C(Cn1c(=O)oc2ccc(C(=O)c3ccc(F)cc3)cc21)c1ccccc1 = inactive
• Cc1ccc(S(=O)(=O)CNC(=O)C(O)(O)C(F)(F)F)cc1 = inactive
• O[C@H]1[C@H](O)[C@@H](O)[C@@]2(O)C[C@@H](O)[C@@H]1N2 = inactive
• COc1ccc(C(=O)N2CCN(c3ccc4[nH]c(=O)oc4c3)CC2)cc1 = inactive
• O=C(Oc1ccccn1)c1cc2cc(CCl)ccc2oc1=O = inactive
• Cc1nc(O)nc2nc3ccc(Cl)cc3c(N(CCO)CCO)c12 = inactive
• COc1cc(/C=C2\N=C(c3ccccc3)N(/N=C3\C(=O)Nc4ccccc43)C2=O)cc(OC)c1OC = inactive
• NNS(=O)(=O)c1cc(C(=O)O)cc(C(=O)O)c1 = inactive
• CCOC(=O)c1c(C)n(C)c2c1cc(O)c1[nH]c3c(c12)CCCC3 = inactive
• NC(=S)N/N=C1/C(=O)N(c2ccc(Cl)cc2Cl)C(=O)C(=O)C1c1nc2ccccc2s1 (stereo not drawn) = inactive
• COc1cc2c(cn1)[nH]c1ccccc12 = inactive
• CC1(C)N=C(c2ccccn2)C(c2ccccn2)=NC1(C)C = inactive
• Nc1ccc(-c2nc3ccccc3s2)cc1Br = inactive
• COc1ccc(/C(=N\Nc2ccccn2)c2ccccn2)cc1 = active
• CCCC/C=C1/CCC(CN(C)C)C1=O (stereo not drawn) = inactive
• CCCCCNC(=O)CCCCCCCCCCCNC(=O)CCCCCCCCCCN1C=CC(=CC=C2C=CC(=O)C=C2)C=C1 = inactive
• COC(=O)C(C(=O)Cc1ccccc1[N+](=O)[O-])C(=O)OC = inactive
• c1ccc2c(c1)[nH]c1c2nc2ccccn21 = inactive
• CCCCCCCCCCCC(=O)NCc1ccc(OC(=O)CCCCCCCCCCC)c(OC)c1 = inactive
• COC(=O)C1=C(O)C(C(=O)OC)[C@]2(O)[C@H](C(=O)OC)[C@H]1C[C@@H](c1cccc(OC)c1)[C@H]2C(=O)OC (stereo partly drawn) = inactive
• CCOC(=O)c1c2ccc(/C=C/C(=O)OC)ccc-2c(C(=O)OCC)c1N = inactive
• Cc1nc2nn[nH]n2c(=O)c1CCO = inactive
• CNC(=O)Nc1cc2c3c(c1)CCCN3CCC2 = inactive
• COc1ccc(/C=C(/C(=O)O)c2cc(OC)c(OC)c(OC)c2)cc1 = inactive
• O=[N+]([O-])c1ccc(/C(Cl)=C/c2ccc(/C=C(\Cl)c3ccc([N+](=O)[O-])cc3[N+](=O)[O-])cc2)c([N+](=O)[O-])c1 = inactive
• Cc1n[n+]([O-])c(C)cc1[N+](=O)[O-] = inactive
• CCOC(=O)C1(C(=O)OCC)Nc2cccnc2N(C)N1 = inactive
• C/C(=N\N)C(CN1CCCCC1)C(c1ccccc1)c1c(O)c2ccccc2oc1=O (stereo not drawn) = inactive
• S=C(Nc1ccc(Cl)cc1)c1ccc(CN2CCCCC2)s1 = inactive
• CC[C@@]1(O)C(=O)OCc2c1cc1n(c2=O)Cc2cc3cc(O)ccc3nc2-1 [HYDROXYCAMPTOTHECIN] = active
• C/C(=N\NC(N)=S)c1cc(C)c(C)cc1C = inactive
• CC1=C(C(=O)Nc2ccccc2C)C(c2ccccc2)C(C(=O)Nc2ccccc2C)=C(C)N1 = inactive
